Tested on: zebrafish embryos
experiment: Zebrafish embryo test (acute lethality, 48 h static exposure), non-injected embryos
Format: in vivo, zebrafish (Danio rerio)
assay.setup: exposure 24-72 hpf, with chorion (value paired with 451 mg/L); read-out: LC50
measurement.name: LC50 (mM)
Report the value in mM with no unit label.

response.value for C=CCO [allyl alcohol, Allyl alcohol] (field: LC50) = 7.7

* * *

experiment: Zebrafish embryo test after microinjection of gfp, adh8a, adh8b or adh8a/b mRNA
Assay type: in vivo, zebrafish (Danio rerio)
assay.setup: OBI, zebrafish, in vivo, other: static waterborne exposure in exposure medium, adh8b mRNA injected, exposure 8-56 h, with chorion, crystallization dish, strain OBI
measurement.name: LC50 (µg/mL)
Report the value in µg/mL with no unit label.

response.value for O=[N+]([O-])c1ccc(O)cc1 (field: LC50) = 9.79

* * *

Test system: zebrafish embryos
experiment: Zebrafish embryo test (acute lethality, 48 h static exposure), non-injected embryos
Format: in vivo, zebrafish (Danio rerio)
assay.setup: exposure 24-72 hpf, without chorion (value paired with 492 mg/L); read-out: LC50
measurement.name: LC50 (mM)
Report the value in mM with no unit label.

response.value for C=CCO [allyl alcohol, Allyl alcohol] (field: LC50) = 8.5

* * *

experiment: Zebrafish embryo test after microinjection of gfp, adh8a, adh8b or adh8a/b mRNA
Format: in vivo, zebrafish (Danio rerio)
assay.setup: OBI, zebrafish, in vivo, other: static waterborne exposure in exposure medium, adh8a mRNA injected, exposure 8-56 h, with chorion, crystallization dish, strain OBI
measurement.name: LC50

response.value for O=[N+]([O-])c1ccc(O)cc1 (field: LC50) = 9.65 µg/mL

* * *

experiment: Zebrafish embryo test after microinjection of gfp, adh8a, adh8b or adh8a/b mRNA
Type: in vivo, zebrafish (Danio rerio)
assay.setup: OBI, zebrafish, in vivo, other: static waterborne exposure in exposure medium, gfp mRNA injected, exposure 8-56 h, with chorion, crystallization dish, strain OBI
measurement.name: LC50
Returns: string containing the numeric result and its unit.

response.value for O=[N+]([O-])c1ccc(O)cc1 (field: LC50) = 9.45 µg/mL
